Let's look at some sequences and their measured PBM binding z-score.
# Tested on: LXRb:RXRa (NR concentration 270 nM, RXRa partner concentration 90 nM)
# PROTOCOL_SUMMARY: PBM binding z-score (relative to random genomic background probes); higher = stronger binding; sequences stand for … in GC…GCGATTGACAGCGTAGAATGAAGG
Lab note: write the figure by itself, no unit.

Solved cases below.
In [3]: df
Out[3]:
                             sequence  quantitative_readout
0  GGAACGAGGGCAAGTTGAGAGCAGAGTTTGATGG                 0.383
1  CAAACTATGTCAAGGTCAAAGTCGGTTTGTGCCA                  4.26
2  TAGCCTAGTTCATGGGCCAGTATACCACGCGAAC                 0.304

Inquiry: Lab note: need PBM binding z-score for `CCTAGTTGGTCAGGAGGTCACGCACCGGATATGA` on LXRb:RXRa (NR concentration 270 nM, RXRa partner concentration 90 nM), anyone have it?
Reply text: 3.81

Inquiry: Lab note: need PBM binding z-score for `CCGTCTGGGGCAAAGGTTACCATACTCAGTACGA` on LXRb:RXRa (NR concentration 270 nM, RXRa partner concentration 90 nM), anyone have it?
Reply text: 2.15

---

# Test system: LXRa homodimer (NR concentration 270 nM)
# PROTOCOL_SUMMARY: PBM binding z-score (relative to random genomic background probes); higher = stronger binding; sequences stand for … in GC…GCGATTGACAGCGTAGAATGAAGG
If the reported PBM binding z-score equals or exceeds 0.07, assign fulfilled. If not, assign not fulfilled.

>>> df
                             sequence                            assayed_target          label
0  TCTTGTAGATCAATCGAGGTTAAGAAAGTGCGCT  LXRa homodimer (NR concentration 270 nM)      fulfilled
1  TCTGCTAGGTCAGTTGGTCAGCTGACGAGCTGCC  LXRa homodimer (NR concentration 270 nM)  not fulfilled
2  GCTTACGGGTCAAAGGTGATAGCATGAATAGAAT  LXRa homodimer (NR concentration 270 nM)  not fulfilled

Inquiry: Hi team, for `AGTCAAAGTTCAGGACGAGGTAAGGTAAAGCACG` , is the recorded PBM binding z-score at or above 0.07?
Reply text: fulfilled

Inquiry: Hi team, for `TAGCCTAGGCCATTCAGGGGCCAGTATAGAAAGC` , is the recorded PBM binding z-score at or above 0.07?
Reply text: not fulfilled

Inquiry: Hi team, for `CAGACTAGGTCACCGGAAGGTCAAAGTCCGCATG` , is the recorded PBM binding z-score at or above 0.07?
Reply text: fulfilled

---

# System: LXRb:RXRa (NR concentration 270 nM, RXRa partner concentration 90 nM)
# PROTOCOL_SUMMARY: PBM binding z-score (relative to random genomic background probes); higher = stronger binding; sequences stand for … in GC…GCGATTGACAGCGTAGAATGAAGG
// classify(record): look up PBM binding z-score in ranges zone 1 (below 0.7), zone 2 (0.7 to below 2), zone 3 (2 or more)

Worked cases, answers included:
                             sequence   label
0  AGTCCAAGTTCATCTAGGTAACGTAAGATATGCT  zone 2
1  GATACAGGGTCAGCTAGTGGCCAGAGTATGGAAA  zone 3

Inquiry: Which of the defined bands does the recorded PBM binding z-score of `ACTATTAGATGACTTAGGGCAACCGATACGACGC` sit within?
Reply text: zone 1

Inquiry: Which of the defined bands does the recorded PBM binding z-score of `ACTTACGCGTCAACGAGGTTATAGCACGCGTATA` sit within?
Reply text: zone 2

Inquiry: Which of the defined bands does the recorded PBM binding z-score of `GCTGCTAGGTCAGCTGATGGTCAGCTAAAGCTCG` sit within?
Reply text: zone 1

Inquiry: Which of the defined bands does the recorded PBM binding z-score of `GGAACGAGGGCAAGTTGATACCAGAGTTTGATGG` sit within?
Reply text: zone 1

Inquiry: Which of the defined bands does the recorded PBM binding z-score of `CCTTACGGGTAAAGGTTATAGCACGGGTGGTACG` sit within?
Reply text: zone 2

Inquiry: Which of the defined bands does the recorded PBM binding z-score of `CCGACTGGGGCAGAAAGGTTACCATTCCATCCGG` sit within?
Reply text: zone 2

Inquiry: Which of the defined bands does the recorded PBM binding z-score of `AGAATGAGGTTACCAAAGATCAGGGAAACGCTTG` sit within?
Reply text: zone 3

Inquiry: Which of the defined bands does the recorded PBM binding z-score of `CCGACTGGGGCAGAGGTTACCATACTCAGTACGA` sit within?
Reply text: zone 2

Inquiry: Which of the defined bands does the recorded PBM binding z-score of `GGAAAGAGGGCATTCGAGTTGATAGCATGGCGAT` sit within?
Reply text: zone 2

Inquiry: Which of the defined bands does the recorded PBM binding z-score of `TCTAGTTGGTCACGGAGCTCACACACGACGGGTA` sit within?
Reply text: zone 1

Inquiry: Which of the defined bands does the recorded PBM binding z-score of `CCTACTAGGCCAAAAAGGTCATTGATGCCGATAA` sit within?
Reply text: zone 3

---

# Tested on: PPARg DBDmut:RXRa IVT, anti-PPARg (DBD mutation: PPARg1 K132A/R137A, NR concentration 270 nM, RXRa partner concentration 90 nM)
# PROTOCOL_SUMMARY: PBM binding z-score (relative to random genomic background probes); higher = stronger binding; sequences stand for … in GC…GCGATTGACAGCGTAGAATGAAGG
Let's look at some sequences and their measured PBM binding z-score.
Lab note: write the figure by itself, no unit.

>>> print(df.to_string())
                             sequence  quantitative_readout
0  GCAGACAGGTGAAAAGCAGGTAACTCAGGGTGGC                -0.581

Inquiry: // returns reported PBM binding z-score for input `CGAACTAGGTCATCCAGGACAGTGACTACATTGA`
Reply text: 4

Inquiry: // returns reported PBM binding z-score for input `CGTCCAAGGTCAGCAGGTCAGGGAAAGCGACGTG`
Reply text: -0.625

Inquiry: // returns reported PBM binding z-score for input `TCATATAGGTAATACAGGTGAAAGACGGCATCTA`
Reply text: 1.39

Inquiry: // returns reported PBM binding z-score for input `TCTAGCAGGCCAGAGGGTCACTCTAGAGGTACGG`
Reply text: -0.508

Inquiry: // returns reported PBM binding z-score for input `ACTATTAGTTGAGACGAGGGCAACCGGTAGGTTG`
Reply text: 0.336

Inquiry: // returns reported PBM binding z-score for input `TCTTGTAGATCAACAGAAGGTTAAGAAAGATCGA`
Reply text: 0.882

Inquiry: // returns reported PBM binding z-score for input `TTACCAAGGTGAAAGGTCGTAGATGCACGCCTTG`
Reply text: 1.07

Inquiry: // returns reported PBM binding z-score for input `GCGACTAGGGCATCAGCAGGTTACCATAACTTAA`
Reply text: -0.562

Inquiry: // returns reported PBM binding z-score for input `CGAACGAGGGAATGAGTTGATAGCAAATGCCGAT`
Reply text: -0.561

Inquiry: // returns reported PBM binding z-score for input `ACTAGCAGGACAAGGGTCACTCAAGATTAGTCCG`
Reply text: -0.0211

Inquiry: // returns reported PBM binding z-score for input `TCTTGTAGATCAAAGGTTCAGAAAGCCGAAGCCT`
Reply text: 0.156

Inquiry: // returns reported PBM binding z-score for input `TAGCCTAGGTCAGCTCGGGCCAGTATACGCTATA`
Reply text: -1.19

Inquiry: // returns reported PBM binding z-score for input `ATCTCTTGGTAAAGATAGTTCAGTGAATGCAAAT`
Reply text: 0.845

Inquiry: // returns reported PBM binding z-score for input `CTACCAAGGTAAACAAGGTCGTTGATTACTATTC`
Reply text: -0.194

Inquiry: // returns reported PBM binding z-score for input `GCGCGGAGGACAAGGTCAGAGCTTTGTCCGTAGA`
Reply text: -1.67

Inquiry: // returns reported PBM binding z-score for input `GCAGACAGGTGAAACGCAGGTAAGTCAGGGTGGC`
Reply text: -0.327

Inquiry: // returns reported PBM binding z-score for input `GTTAGCAGGCCATTTGGGTCACTCAATGACGGGC`
Reply text: -0.276

Inquiry: // returns reported PBM binding z-score for input `CGTCCAAGGTCAAACGTCAGTGAAGAGATGACGG`
Reply text: 0.591

Inquiry: // returns reported PBM binding z-score for input `GGAACGAGGGCAAAGTTGAGAGCATCTGTCGACG`
Reply text: 0.813

Inquiry: // returns reported PBM binding z-score for input `TCATATAGGTAAACAGGTGAAAATCCGTAAGTTA`
Reply text: 1.27
